Just for reference, patent US5095006A is where these values come from.

target: endogenous renin from human plasma (Homo sapiens); construct: rate of formation of angiotensin I from endogenous angiotensinogen and renin; from tissue; host or cells: pooled human plasma (EDTA); assay: In vitro test: inhibition of plasma renin activity (angiotensin I formation, radioimmunoassay); assay type: biochemical; conditions: pooled human plasma, 37° C., pH 5.6
recordedEndpoint: Inhibition at 0.05 mg/ml [%] (%)
Give bare numbers, in %.

>>> measvalue("O=C(NC1CCCC1)[C@@H](Cc1ccccc1)NC(=O)[C@@H](Cc1c[nH]cn1)NC(=O)[C@H](Cc1ccccc1)[C@@H](O)CN1C(=O)c2ccccc2C1=O")
100

Below are 4 compounds. Give each one its Inhibition at 0.05 mg/ml [%].
1. COC(=O)[C@@H](Cc1ccccc1)NC(=O)[C@@H](Cc1cnc[nH]1)NC(=O)C(Cc1ccccc1)C(O)CN(Cc1ccccc1)C(=O)Cc1cccnc1 (some centres unmarked)
2. O=C(N[C@H](Cc1cnc[nH]1)C(=O)N[C@H](Cc1ccccc1)C(=O)OCc1ccccc1)C(Cc1ccccc1)C(O)CN1C(=O)c2ccccc2C1=O (some centres unmarked)
3. CC(C)(C)OC(=O)N(Cc1ccccc1)C[C@H](O)[C@@H](Cc1ccccc1)C(=O)N[C@H](Cc1c[nH]cn1)C(=O)N[C@H](Cc1ccccc1)C(=O)N1CCOCC1
4. CC(C)CNC(=O)[C@@H](Cc1ccccc1)NC(=O)[C@@H](Cc1c[nH]cn1)NC(=O)[C@H](Cc1ccccc1)[C@@H](O)CNC(=O)OC(C)(C)C

1: 88; 2: 100; 3: 100; 4: 100

----------
Target: endogenous renin from human plasma (Homo sapiens, UniProt P00797)
Construct: rate of formation of angiotensin I from endogenous angiotensinogen and renin; from tissue; host or cells: pooled human plasma (EDTA)
Sequence (P00797 67-406): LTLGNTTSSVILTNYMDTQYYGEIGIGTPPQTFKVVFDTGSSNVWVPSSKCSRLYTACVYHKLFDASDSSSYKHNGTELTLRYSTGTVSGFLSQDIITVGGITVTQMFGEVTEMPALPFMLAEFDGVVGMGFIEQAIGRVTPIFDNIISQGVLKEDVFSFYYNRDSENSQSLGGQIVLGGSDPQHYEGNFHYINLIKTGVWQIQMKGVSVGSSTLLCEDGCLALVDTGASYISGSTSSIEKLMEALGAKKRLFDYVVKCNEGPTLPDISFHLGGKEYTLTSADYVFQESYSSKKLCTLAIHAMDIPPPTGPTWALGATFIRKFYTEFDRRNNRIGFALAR
Experiment: In vitro test: inhibition of plasma renin activity (angiotensin I formation, radioimmunoassay)
Format: biochemical
Settings: pooled human plasma, 37° C., pH 5.6
recordedEndpoint: Inhibition at 0.05 mg/ml [%] (%)
One number for each entry, in %.

// worked examples, Inhibition at 0.05 mg/ml [%] included
>>> measvalue("O=C(O)[C@@H](Cc1ccccc1)NC(=O)[C@@H](Cc1c[nH]cn1)NC(=O)[C@H](Cc1ccccc1)[C@@H](O)CN1C(=O)c2ccccc2C1=O")
92
>>> measvalue("CC(C)CNC(=O)[C@@H](Cc1ccccc1)NC(=O)[C@@H](Cc1cnc[nH]1)NC(=O)C(Cc1ccccc1)C(O)CNC(=O)c1ccccc1C(=O)O (stereo partly shown)")
63
>>> measvalue("CC(C)(C)OC(=O)N(Cc1ccccc1)CC(O)C(Cc1ccccc1)C(=O)N[C@H](Cc1cnc[nH]1)C(=O)N[C@H](Cc1ccccc1)C(=O)O (stereo partly shown)")
78

# lookup: CC(C)(C)OC(=O)N(Cc1ccccc1)CC(O)C(Cc1ccccc1)C(=O)N[C@H](Cc1c[nH]cn1)C(=O)O (stereo partly shown) on endogenous renin from human plasma (Homo sapiens, UniProt P00797), Inhibition at 0.05 mg/ml [%] = 93
